In this section we review reported GI50 values for a set of compounds.
# Tested Target: Ba/F3 EGFR-Del19/T790M (Homo sapiens, UniProt P00533, T790M, cells depend on it, form not given)
# Sequence (P00533 with tags, fused parts or gaps DEL746-750/T790M, form open): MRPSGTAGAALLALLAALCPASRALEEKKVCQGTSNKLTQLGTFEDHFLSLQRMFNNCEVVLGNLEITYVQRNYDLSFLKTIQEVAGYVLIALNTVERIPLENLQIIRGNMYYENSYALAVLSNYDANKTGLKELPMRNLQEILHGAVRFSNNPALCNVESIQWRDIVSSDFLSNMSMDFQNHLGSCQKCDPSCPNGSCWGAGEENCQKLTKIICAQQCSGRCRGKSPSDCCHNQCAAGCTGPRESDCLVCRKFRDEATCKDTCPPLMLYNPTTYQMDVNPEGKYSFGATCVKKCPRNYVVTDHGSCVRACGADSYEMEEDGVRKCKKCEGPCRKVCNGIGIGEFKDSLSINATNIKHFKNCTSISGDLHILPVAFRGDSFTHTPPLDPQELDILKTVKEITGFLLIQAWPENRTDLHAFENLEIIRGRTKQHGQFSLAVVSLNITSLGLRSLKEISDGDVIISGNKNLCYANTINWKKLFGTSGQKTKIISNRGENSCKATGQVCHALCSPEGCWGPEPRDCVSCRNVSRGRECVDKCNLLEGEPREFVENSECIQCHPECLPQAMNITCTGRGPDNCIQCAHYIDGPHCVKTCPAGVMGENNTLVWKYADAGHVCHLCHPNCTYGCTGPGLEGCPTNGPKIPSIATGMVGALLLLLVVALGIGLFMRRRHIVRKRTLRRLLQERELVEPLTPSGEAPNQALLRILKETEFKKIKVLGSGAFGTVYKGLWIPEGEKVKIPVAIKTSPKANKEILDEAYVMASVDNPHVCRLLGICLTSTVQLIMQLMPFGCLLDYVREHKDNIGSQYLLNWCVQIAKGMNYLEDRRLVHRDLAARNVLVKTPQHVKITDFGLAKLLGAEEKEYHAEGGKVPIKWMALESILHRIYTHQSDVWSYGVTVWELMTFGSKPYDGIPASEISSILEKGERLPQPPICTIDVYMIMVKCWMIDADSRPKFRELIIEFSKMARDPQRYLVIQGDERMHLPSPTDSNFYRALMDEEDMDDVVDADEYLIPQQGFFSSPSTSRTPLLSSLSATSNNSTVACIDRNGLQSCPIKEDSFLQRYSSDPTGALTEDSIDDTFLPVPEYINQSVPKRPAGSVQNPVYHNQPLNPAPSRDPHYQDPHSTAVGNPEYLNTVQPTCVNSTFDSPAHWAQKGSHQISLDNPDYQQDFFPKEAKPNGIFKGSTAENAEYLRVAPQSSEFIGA
# Assay Details: Ba/F3 viability assay (CellTiter-Glo), BAF3 DT
# Assay type: cell-based
# Setup Conditions: Ba/F3 EGFR-Del19/T790M cell viability

Cc1cc2cc(n1)-c1cnn(C)c1CCC[C@@H](C)CN1/C(=N/C2=O)Nc2ccc(N(CCN(C)C)CC3COC3)cc21 [(18)]; 50 to 100 nM
Cc1cc2cc(n1)-c1cnn(C)c1CCC[C@@H](C)CN1/C(=N/C2=O)Nc2ccc(CN3CCN(CCF)CC3)cc21 [(25)]; < 50 nM
Cc1cc2cc(n1)-c1cnn(C)c1CCCCCCN1/C(=N/C2=O)Nc2ccc(CN3CCN(C)CC3)cc21 [(64)]; < 50 nM
COc1cc(N2CCN(C)CC2)cc2c1N/C1=N\C(=O)c3cc(C)nc(c3)-c3cnn(C)c3CCC[C@@H](C)CN12 [(3)]; 50 to 100 nM
Cc1cc2cc(n1)-c1cnn(C)c1CCCCCCN1/C(=N/C2=O)Nc2ccc(CN3CCOCC3)cc21 [(62)]; ≥ 1000 nM

// next entry
For reference, reported GI50 for Cc1cc2cc(n1)-c1cnn(C)c1CCCCCN1/C(=N/C2=O)Nc2ccc(CN3CCNCC3)cc21 [(46)] stands at < 50 nM

====

In this section we review reported IC50 values for a set of molecules.
# Tested Target: EGFRL858R (Homo sapiens, UniProt P00533, L858R)
# Sequence (P00533 25-1210 L858R): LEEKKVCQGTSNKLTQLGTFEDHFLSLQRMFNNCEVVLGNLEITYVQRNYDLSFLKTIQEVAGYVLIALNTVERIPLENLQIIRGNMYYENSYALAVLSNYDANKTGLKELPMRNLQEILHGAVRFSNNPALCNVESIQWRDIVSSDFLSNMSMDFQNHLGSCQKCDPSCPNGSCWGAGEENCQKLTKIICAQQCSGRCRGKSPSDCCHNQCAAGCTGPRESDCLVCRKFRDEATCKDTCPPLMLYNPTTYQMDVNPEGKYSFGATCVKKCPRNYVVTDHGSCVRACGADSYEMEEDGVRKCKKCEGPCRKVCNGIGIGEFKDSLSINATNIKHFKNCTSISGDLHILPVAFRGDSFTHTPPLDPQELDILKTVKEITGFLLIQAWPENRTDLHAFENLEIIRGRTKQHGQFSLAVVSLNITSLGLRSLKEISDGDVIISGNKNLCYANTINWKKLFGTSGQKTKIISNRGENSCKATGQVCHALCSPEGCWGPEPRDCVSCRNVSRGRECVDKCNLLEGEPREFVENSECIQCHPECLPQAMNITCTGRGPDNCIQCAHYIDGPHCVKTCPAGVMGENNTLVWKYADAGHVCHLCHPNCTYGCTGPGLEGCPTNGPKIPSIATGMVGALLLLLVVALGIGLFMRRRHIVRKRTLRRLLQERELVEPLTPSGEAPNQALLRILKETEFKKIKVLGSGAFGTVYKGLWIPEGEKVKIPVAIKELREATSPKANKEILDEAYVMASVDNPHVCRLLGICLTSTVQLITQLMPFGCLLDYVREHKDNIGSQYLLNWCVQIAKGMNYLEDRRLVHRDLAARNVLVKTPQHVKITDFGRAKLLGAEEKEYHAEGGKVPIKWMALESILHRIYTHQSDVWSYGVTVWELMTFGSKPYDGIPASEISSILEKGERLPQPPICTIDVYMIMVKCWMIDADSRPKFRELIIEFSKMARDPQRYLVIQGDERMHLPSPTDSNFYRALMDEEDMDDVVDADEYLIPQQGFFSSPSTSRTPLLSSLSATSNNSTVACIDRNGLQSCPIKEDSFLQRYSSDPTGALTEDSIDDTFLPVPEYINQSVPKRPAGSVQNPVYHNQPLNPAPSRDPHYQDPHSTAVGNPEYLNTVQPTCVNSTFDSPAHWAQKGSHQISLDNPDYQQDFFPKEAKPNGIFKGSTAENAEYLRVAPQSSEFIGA
# Assay Details: HTRF KinEASE-TK in vitro kinase assay, KINASE L
# Setup Conditions: EGFR L858R kinase

Solved entries (count: 4):
Cc1cc2cc(n1)-c1cnn(C)c1CCC[C@@H](C)CN1/C(=N/C2=O)Nc2ccc(N3CCC(N4CC[C@H](N(C)C)C4)CC3)cc21; < 50 nM
Cc1cc2cc(n1)-c1cnn(C)c1CCC[C@@H](C)CN1/C(=N/C2=O)Nc2c(C)cc(N3CCN(C)CC3)cc21; < 50 nM
Cc1cc2cc(n1)-c1cnn(C)c1-c1cccc(c1)CN1/C(=N/C2=O)Nc2ccc(CN3CCN(C)CC3)cc21; 100 to 1000 nM
Cc1cc2cc(n1)-c1cnn(C)c1CCC[C@@H](C)CN1/C(=N/C2=O)Nc2ccc(N3CCC(N4CCOCC4)CC3)cc21; < 50 nM

// next entry
For reference, reported IC50 for Cc1cc2cc(n1)-c1cnn(C)c1-c1cccc(c1)C(C)CN1/C(=N/C2=O)Nc2ccc(C(=O)N3CCN(C)CC3)cc21 (centres unmarked) stands at 100 to 1000 nM

====

In this section we review reported IC50 values for a set of molecules.
# Tested Target: EGFRL858R (Homo sapiens, UniProt P00533, L858R)
# Assay Details: HTRF KinEASE-TK in vitro kinase assay, KINASE L
# Setup Conditions: EGFR L858R kinase

Solved entries (count: 6):
Cc1cc2cc(n1)-c1cnn(C)c1CCC[C@@H](C)CN1/C(=N/C2=O)Nc2ccc(N3C[C@@H](C)N(C)[C@@H](C)C3)cc21; < 50 nM
Cc1cc2cc(n1)-c1cnn(C)c1CCC[C@@H](C)CN1/C(=N/C2=O)Nc2ccc(CN3CCN(C)CC3)cc21; < 50 nM
Cc1cc2cc(n1)-c1cnn(C)c1CCCCCN1/C(=N/C2=O)Nc2ccc(CN3CCNCC3)cc21; < 50 nM
Cc1cc2cc(n1)-c1cnn(C)c1CCC[C@@H](C)CN1/C(=N/C2=O)Nc2ccc(CN3CCN(CCF)CC3)cc21; < 50 nM
COc1ccncc1-c1ccc2c(c1)N1C[C@H](C)CCCc3c(cnn3C)-c3cc(cc(C)n3)C(=O)/N=C/1N2; < 50 nM
Cc1cc2cc(n1)-c1cnn(C)c1CCCCCN1/C(=N/C2=O)Nc2ccc(CN3CCN(C)CC3)cc21; < 50 nM

// next entry
For reference, reported IC50 for `Cc1cc2cc(n1)-c1cnn(C)c1CCCO[C@@H](C)CN1/C(=N/C2=O)Nc2ccc(CN3CCN(C)CC3)cc21` stands at 100 to 1000 nM
